Tested on: PC-3
Test: Cytotoxicity against human PC3 cells after 96 hrs by SRB assay
Settings: PC-3, 96 h
experimental readout: IC50

- compound: "COc1cc(NC(=O)[C@@H]2CSC(c3cc(OC)c(OC)c(OC)c3)N2)cc(OC)c1OC (mixture of isomers)"
  reported: "> 20 µM"
- compound: "O=C(c1cc(O)c(O)c(O)c1)c1csc(-c2ccccc2)n1"
  reported: "> 20 µM"
- compound: "COc1cccc(C(=O)c2csc(-c3ccccc3)n2)c1"
  reported: "> 20 µM"

Origin of values: ChEMBL document CHEMBL1152784
